# Target of assay: Amine oxidase [flavin-containing] B (Homo sapiens)
# Sequence (P27338 whole entry): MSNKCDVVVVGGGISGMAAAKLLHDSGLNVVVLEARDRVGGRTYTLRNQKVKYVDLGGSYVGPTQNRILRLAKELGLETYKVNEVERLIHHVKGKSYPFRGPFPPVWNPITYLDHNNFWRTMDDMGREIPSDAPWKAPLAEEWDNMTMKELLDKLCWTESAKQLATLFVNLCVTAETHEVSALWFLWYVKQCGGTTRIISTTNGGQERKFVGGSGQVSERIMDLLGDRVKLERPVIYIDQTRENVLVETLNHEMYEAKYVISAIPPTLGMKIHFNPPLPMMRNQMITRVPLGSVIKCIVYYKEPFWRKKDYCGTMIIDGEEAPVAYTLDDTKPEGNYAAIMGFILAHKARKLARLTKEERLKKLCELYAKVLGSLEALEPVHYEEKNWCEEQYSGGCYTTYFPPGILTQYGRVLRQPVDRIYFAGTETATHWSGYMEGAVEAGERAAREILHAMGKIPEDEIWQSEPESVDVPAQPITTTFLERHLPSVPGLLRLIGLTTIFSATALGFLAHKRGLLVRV
# Test description: biochemical
# Description: Inhibition of human recombinant MAO-B expressed in baculovirus infected BTI-TN-5B1-4 insect sells assessed as hydrogen peroxide production by fluorimetric method
Consider the cut-off 400 nM. If the recorded IC50 is strictly smaller, the label is MET; if not, the label is NOT MET.

Molecule: COc1cc(/C=C2\COc3ccccc3C2=O)cc(OC)c1OC
Category: NOT MET
//
Molecule: O=C1/C(=C/c2ccc(Cl)cc2)COc2ccc(Cl)cc21
Category: MET
//
Molecule: CN(C)c1ccc(/C=C2\COc3ccccc3C2=O)cc1
Category: MET
//
Molecule: COc1cccc(/C=C2\COc3ccccc3C2=O)c1OC
Category: NOT MET
//
Molecule: O=C1/C(=C/c2ccc(O)cc2)COc2cc(O)cc(O)c21
Category: MET
//
Molecule: COc1ccc(Cc2coc3ccccc3c2=O)cc1
Category: NOT MET
//
Molecule: O=C1/C(=C/c2ccc(O)c([N+](=O)[O-])c2)COc2ccccc21
Category: NOT MET
//
Molecule: COc1ccc(/C=C2\COc3ccccc3C2=O)cc1
Category: MET
//
Molecule: O=C1c2ccccc2OCC1Cc1ccc(Cl)cc1 (stereo not drawn)
Category: NOT MET
//
Molecule: Nc1ccc(/C=C2\COc3ccccc3C2=O)cc1
Category: NOT MET
//
Molecule: O=C1/C(=C/c2ccc(O)c(O)c2)COc2ccccc21
Category: MET
//
Molecule: COc1cc(/C=C2\COc3ccccc3C2=O)ccc1O
Category: MET
//
Molecule: O=c1c(Cc2ccc(Cl)cc2)coc2cc(Cl)cc(Cl)c12
Category: NOT MET
//
Molecule: COc1ccc(/C=C2\COc3ccccc3C2=O)c(O)c1
Category: NOT MET
//
Molecule: O=C1/C(=C/c2ccc(O)cc2)COc2ccccc21
Category: MET
//
Molecule: O=C1c2c(Cl)cc(Cl)cc2OCC1Cc1ccc(Cl)cc1 (stereo not drawn)
Category: NOT MET
//
Molecule: COc1ccc(/C=C2\COc3cc(OC)cc(OC)c3C2=O)cc1
Category: NOT MET
//
Molecule: COc1ccc(/C=C2\COc3ccccc3C2=O)c(OC)c1
Category: MET
//
Molecule: COc1ccc(/C=C2\COc3ccccc3C2=O)cc1O
Category: NOT MET
//
Molecule: O=C1c2cc(Cl)ccc2OCC1Cc1ccc(Cl)cc1 (stereo not drawn)
Category: NOT MET
//
Molecule: O=C1c2ccccc2OCC1Cc1ccccc1 (stereo not drawn)
Category: NOT MET
//
Molecule: O=C1/C(=C/c2ccccc2)COc2ccccc21
Category: NOT MET
//
Molecule: CC(=O)Nc1ccc(/C=C2\COc3ccccc3C2=O)cc1
Category: NOT MET
//
Molecule: Nc1cc(/C=C2\COc3ccccc3C2=O)ccc1O
Category: NOT MET
//
Molecule: O=C1/C(=C/c2ccccc2)COc2ccc(Cl)cc21
Category: MET
//
Molecule: O=C1/C(=C/c2ccc(Cl)cc2)COc2ccccc21
Category: MET
//
Molecule: COc1ccc(/C=C2\COc3ccccc3C2=O)c(OC)c1OC
Category: NOT MET
//
Molecule: O=C1/C(=C/c2ccc(Cl)cc2)COc2cc(Cl)cc(Cl)c21
Category: MET
